Kindly state IC50 for each of the entries shown.
measuredTarget: BACE1 (Homo sapiens, UniProt P56817)
Construct: endogenous in cells
Sequence (P56817 46-501): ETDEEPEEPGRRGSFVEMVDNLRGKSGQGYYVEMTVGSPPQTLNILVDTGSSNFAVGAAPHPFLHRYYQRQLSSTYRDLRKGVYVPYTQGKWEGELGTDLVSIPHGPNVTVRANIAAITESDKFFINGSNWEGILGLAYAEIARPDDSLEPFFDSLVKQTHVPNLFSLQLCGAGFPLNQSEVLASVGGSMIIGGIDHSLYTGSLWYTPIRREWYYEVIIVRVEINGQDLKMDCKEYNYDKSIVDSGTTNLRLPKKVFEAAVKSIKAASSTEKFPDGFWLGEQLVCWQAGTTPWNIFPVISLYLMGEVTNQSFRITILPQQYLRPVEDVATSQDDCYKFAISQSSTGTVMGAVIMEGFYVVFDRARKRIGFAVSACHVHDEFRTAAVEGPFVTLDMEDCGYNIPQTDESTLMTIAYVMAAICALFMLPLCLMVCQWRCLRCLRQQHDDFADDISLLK
testMethodNotes: Cellular Aβ-lowering assay (Abeta 40 AlphaLISA, HEK293 APP cells)
conditionDetails: Aβ 40 in culture supernatant by AlphaLISA, 18-20 hrs incubation at 37° C., 1% DMSO
Form entry: value (nM) — number only.

# get_value(readout='IC50', item= N#Cc1ccc(C(=O)Nc2ccc(F)c([C@]3(C(F)F)C[S@]4(=O)=NCCCCN4C(N)=N3)n2)nc1 )
78

Here is the next molecule: N#Cc1ccc(C(=O)Nc2ccc(F)c([C@]3(C(F)F)C[S@@]4(=O)=NCCCCN4C(N)=N3)n2)nc1
147
